Overview of recorded IC50 for various molecules
System: hMAO-B (Homo sapiens, UniProt P27338)
Sequence (P27338 whole entry): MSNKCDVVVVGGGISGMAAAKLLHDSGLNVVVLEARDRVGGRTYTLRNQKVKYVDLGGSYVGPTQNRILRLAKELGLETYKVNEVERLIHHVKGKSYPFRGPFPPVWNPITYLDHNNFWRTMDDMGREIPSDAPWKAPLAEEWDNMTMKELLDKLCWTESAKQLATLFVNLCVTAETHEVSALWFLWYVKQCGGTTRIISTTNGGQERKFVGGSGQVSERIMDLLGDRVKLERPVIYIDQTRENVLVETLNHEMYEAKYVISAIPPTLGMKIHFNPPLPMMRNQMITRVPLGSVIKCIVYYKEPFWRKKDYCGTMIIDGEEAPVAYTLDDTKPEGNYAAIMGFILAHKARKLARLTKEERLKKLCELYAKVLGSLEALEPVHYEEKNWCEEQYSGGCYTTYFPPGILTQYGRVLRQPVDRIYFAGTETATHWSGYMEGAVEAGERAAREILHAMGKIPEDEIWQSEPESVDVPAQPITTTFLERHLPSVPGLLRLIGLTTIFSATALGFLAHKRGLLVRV
Answer with the number, then the unit.

Study these solved cases before continuing.
C#CCN1CCC(CCc2cccc(OC)c2)CC1: 0.238 µM
C#CCN1CCC(CCc2ccc(OC(=O)Nc3ccccc3)cc2)CC1: 9.7 µM
C#CCN1CCC(CCc2cccc(O)c2)CC1: 52.5 µM

Entry C#CCN1CCC(CCc2cccc(OC(=O)Nc3ccccc3)c2)CC1 ; IC50 = 23.6 µM

Entry C#CCN1CCC(CCc2ccc(OC(=O)N(C)CC)cc2)CC1 ; IC50 = 0.181 µM

Entry C#CCN1CCC(/C=C/c2ccc(O)cc2)CC1 ; IC50 = 12.9 µM
